- Study Target: HLA-A*02:19
- Method Description: IEDB peptide-MHC binding, purified MHC/competitive/fluorescence; filed as Kd, often an IC50 or EC50 that approximates it; bounds were set here for any values at or beyond the usual limits of such assays
- Stated Conditions: source organism: Acinetobacter baylyi
pKd: −log10 of the molar value.
Quantity Measured: pKd

1) DLMLLSYSL
7.85

###

Kd: recorded values
- Study Target: HLA-A*01:01
- Method Description: IEDB peptide-MHC binding, purified MHC/direct/fluorescence; filed as Kd, often an IC50 or EC50 that approximates it; bounds were set here for any values at or beyond the usual limits of such assays
- Stated Conditions: source organism: Yersinia pestis
Quantity Measured: Kd

1) AARISSCLK
≥ 20 µM
2) STFAASGPF
≥ 20 µM

###

- Study Target: HLA-A*33:01
- Method Description: IEDB peptide-MHC binding, purified MHC/competitive/radioactivity; filed as Kd, often an IC50 or EC50 that approximates it; bounds were set here for any values at or beyond the usual limits of such assays
- Stated Conditions: source organism: Mammarenavirus brazilense
pKd: −log10 of the molar value.
Quantity Measured: pKd

1. SNSKEIPSFR
6.27

###

- Study Target: HLA-C*05:01
- Method Description: IEDB peptide-MHC binding, purified MHC/direct/fluorescence; filed as Kd, often an IC50 or EC50 that approximates it; bounds were set here for any values at or beyond the usual limits of such assays
- Stated Conditions: source organism: Influenza A virus (A/chicken/Fujian/25/00(H9N2))
pKd: −log10 of the molar value.
Quantity Measured: pKd

1. WMMAMRYPI
≤ 4.70

###

- Study Target: HLA-A*24:03
- Method Description: IEDB peptide-MHC binding, purified MHC/competitive/fluorescence; filed as Kd, often an IC50 or EC50 that approximates it; bounds were set here for any values at or beyond the usual limits of such assays
- Stated Conditions: source organism: Cryptosporidium parvum Iowa II
pKd: −log10 of the molar value.
Quantity Measured: pKd

1) FTWQHNYYL
7.39

###

- Study Target: HLA-A*30:01
- Method Description: IEDB peptide-MHC binding, purified MHC/competitive/fluorescence; filed as Kd, often an IC50 or EC50 that approximates it; bounds were set here for any values at or beyond the usual limits of such assays
- Stated Conditions: source organism: Rickettsia akari str. Hartford
Quantity Measured: Kd

1. FTARIIIFS
≥ 5 µM

###

- Study Target: HLA-B*27:03
- Method Description: IEDB peptide-MHC binding, purified MHC/competitive/fluorescence; filed as Kd, often an IC50 or EC50 that approximates it; bounds were set here for any values at or beyond the usual limits of such assays
- Stated Conditions: source organism: Pan troglodytes
pKd: −log10 of the molar value.
Quantity Measured: pKd

1. RVLTARKTV
≤ 4.70

###

- Study Target: HLA-A*31:01
- Method Description: IEDB peptide-MHC binding, purified MHC/competitive/radioactivity; filed as Kd, often an IC50 or EC50 that approximates it; bounds were set here for any values at or beyond the usual limits of such assays
- Stated Conditions: source organism: Dengue virus 1 Brazil/97-11/1997
pKd: −log10 of the molar value.
Quantity Measured: pKd

1. LVMAFIAFLR
7.13

###

- Study Target: HLA-B*40:01
- Method Description: IEDB peptide-MHC binding, purified MHC/competitive/radioactivity; filed as Kd, often an IC50 or EC50 that approximates it; bounds were set here for any values at or beyond the usual limits of such assays
- Stated Conditions: source organism: Mammarenavirus machupoense
Quantity Measured: Kd (µM)

1. AENVIVGLV
2.93
2. KEPQKPLVL
15.8
3. QEKAPDVGEL
13
4. GDEALTGFL
0.908

###

- Study Target: HLA-B*58:01
- Method Description: IEDB peptide-MHC binding, purified MHC/direct/fluorescence; filed as Kd, often an IC50 or EC50 that approximates it; bounds were set here for any values at or beyond the usual limits of such assays
- Stated Conditions: source organism: Pasteurella multocida
pKd: −log10 of the molar value.
Quantity Measured: pKd

1. SQLEMCEKY
≤ 4.70

###

- Study Target: HLA-A*02:16
- Method Description: IEDB peptide-MHC binding, purified MHC/direct/fluorescence; filed as Kd, often an IC50 or EC50 that approximates it; bounds were set here for any values at or beyond the usual limits of such assays
- Stated Conditions: source organism: Ebola virus Yambio0403
Quantity Measured: Kd

1. RYEFTAPFI
≥ 20 µM

###

- Study Target: HLA-A*68:01
- Method Description: IEDB peptide-MHC binding, purified MHC/competitive/radioactivity; filed as Kd, often an IC50 or EC50 that approximates it; bounds were set here for any values at or beyond the usual limits of such assays
- Stated Conditions: source organism: Dengue virus 2 Peru/IQT2913/1996
pKd: −log10 of the molar value.
Quantity Measured: pKd

1) CTTTGEHRR
7.56
2) MLINRFTMR
7.75

###

- Study Target: HLA-C*14:02
- Method Description: IEDB peptide-MHC binding, purified MHC/direct/fluorescence; filed as Kd, often an IC50 or EC50 that approximates it; bounds were set here for any values at or beyond the usual limits of such assays
- Stated Conditions: source organism: Human herpesvirus 4 strain B95-8
Quantity Measured: Kd (nM)

1) TVFYNIPPM
3

###

- Study Target: HLA-B*46:01
- Method Description: IEDB peptide-MHC binding, cellular MHC/competitive/fluorescence; bounds were set here for any values at or beyond the usual limits of such assays
- Stated Conditions: source organism: Human herpesvirus 4 strain B95-8
pIC50: −log10 of the molar value.
Quantity Measured: pIC50

1) HAMHISTGL
5.30

###

- Study Target: HLA-A*02:01
- Method Description: IEDB peptide-MHC binding, purified MHC/competitive/fluorescence; bounds were set here for any values at or beyond the usual limits of such assays
- Stated Conditions: source organism: Vaccinia virus
pIC50: −log10 of the molar value.
pIC50: recorded values
Quantity Measured: pIC50

1) GIKCIKKGV
≤ 3.99
2) NIGNTKSNI
≤ 3.18
3) YNIDKIKDV
5.04

###

- Study Target: HLA-A*69:01
- Method Description: IEDB peptide-MHC binding, purified MHC/direct/fluorescence; filed as Kd, often an IC50 or EC50 that approximates it; bounds were set here for any values at or beyond the usual limits of such assays
- Stated Conditions: source organism: Dengue virus 1 Singapore/S275/1990
Quantity Measured: Kd

1) KMDIGVPLL
≥ 20 µM

###

- Study Target: HLA-A*30:02
- Method Description: IEDB peptide-MHC binding, purified MHC/competitive/radioactivity; filed as Kd, often an IC50 or EC50 that approximates it; bounds were set here for any values at or beyond the usual limits of such assays
- Stated Conditions: source organism: Dengue virus 4 Singapore/8976/1995
pKd: −log10 of the molar value.
Quantity Measured: pKd

1. QKAALSEGVY
6.86

###

- Study Target: HLA-A*01:01
- Method Description: IEDB peptide-MHC binding, purified MHC/direct/fluorescence; filed as Kd, often an IC50 or EC50 that approximates it; bounds were set here for any values at or beyond the usual limits of such assays
- Stated Conditions: source organism: Influenza A virus (A/turkey/Minnesota/1200/1980(H7N3))
pKd: −log10 of the molar value.
Quantity Measured: pKd

1. VTTEVAFGL
≤ 4.70

###

- Study Target: HLA-B*08:01
- Method Description: IEDB peptide-MHC binding, purified MHC/direct/fluorescence; filed as Kd, often an IC50 or EC50 that approximates it; bounds were set here for any values at or beyond the usual limits of such assays
- Stated Conditions: source organism: Campylobacter jejuni
Quantity Measured: Kd (µM)

1) VFKVKLHEI
0.391

###

- Study Target: HLA-B*58:01
- Method Description: IEDB peptide-MHC binding, purified MHC/direct/fluorescence; filed as Kd, often an IC50 or EC50 that approximates it; bounds were set here for any values at or beyond the usual limits of such assays
- Stated Conditions: source organism: Burkholderia thailandensis
pKd: −log10 of the molar value.
pKd: recorded values
Quantity Measured: pKd

1) MALATGLWW
9.30
2) WADMPLHQW
8.05

###

- Study Target: HLA-A*24:02
- Method Description: IEDB peptide-MHC binding, purified MHC/competitive/radioactivity; filed as Kd, often an IC50 or EC50 that approximates it; bounds were set here for any values at or beyond the usual limits of such assays
- Stated Conditions: source organism: Mammarenavirus guanaritoense
Kd: recorded values
Quantity Measured: Kd (µM)

1. LKILVLSIL
1.83
2. VLCSSSPTI
1.67

###

- Study Target: HLA-A*02:02
- Method Description: IEDB peptide-MHC binding, purified MHC/competitive/radioactivity; filed as Kd, often an IC50 or EC50 that approximates it; bounds were set here for any values at or beyond the usual limits of such assays
- Stated Conditions: source organism: Mammarenavirus juninense
Quantity Measured: Kd (µM)

1) ALNIALVAV
0.0153
